test system: Escherichia coli TOP10; test: shrunken log2 fold change of peptide-encoding DNA abundance (4.5 h post-induction vs induction); higher = less antimicrobial activity (less host growth inhibition); conditions: time post-induction: 4.5 h; library: site-saturation at positions 5, 18, 19, 20
Measured shrunken log2 fold change accompanies every entry in the list below.
REPORTED PROPERTY: shrunken log2 fold change

[[record]]
biosequence = "RRIRPRPPRLPRPRPRPSDCPRP"
value_measured = -0.0743

[[record]]
biosequence = "RRIRWRPPRLPRPRPRPTGMPRP"
value_measured = 0.117

[[record]]
biosequence = "RRIRQRPPRLPRPRPRPMPFPRP"
value_measured = -0.0697

[[record]]
biosequence = "RRIRHRPPRLPRPRPRPAMTPRP"
value_measured = -0.00367

[[record]]
biosequence = "RRIRIRPPRLPRPRPRPKWAPRP"
value_measured = -0.105

[[record]]
biosequence = "RRIRSRPPRLPRPRPRPCPCPRP"
value_measured = -0.138

[[record]]
biosequence = "RRIRVRPPRLPRPRPRPMKRPRP"
value_measured = 0.0336

[[record]]
biosequence = "RRIRFRPPRLPRPRPRPEHIPRP"
value_measured = -0.161


----------
tested on: Escherichia coli TOP10; experiment: shrunken log2 fold change of peptide-encoding DNA abundance (4.5 h post-induction vs induction); higher = less antimicrobial activity (less host growth inhibition); conditions: time post-induction: 4.5 h; library: site-saturation at positions 5, 18, 19, 20;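 note: peptides expressed intracellularly from a pBAD plasmid library in pooled LB shake-flask culture, induced with 0.3% L-arabinose, DNA abundance read by NGS, three biological replicates, DESeq2 with apeglm shrinkage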
Quick rule for you: shrunken log2 fold change at 0.05 or higher means class 1, lower means class 0.

[[record]]
biosequence = "RRIRNRPPRLPRPRPRPYPKPRP"
group_label = "class 0"

[[record]]
biosequence = "RRIRMRPPRLPRPRPRPPAMPRP"
group_label = "class 1"

[[record]]
biosequence = "RRIRLRPPRLPRPRPRPTYCPRP"
group_label = "class 0"

[[record]]
biosequence = "RRIRVRPPRLPRPRPRPNGGPRP"
group_label = "class 1"

[[record]]
biosequence = "RRIRTRPPRLPRPRPRPTMAPRP"
group_label = "class 1"

[[record]]
biosequence = "RRIRIRPPRLPRPRPRPWNPPRP"
group_label = "class 0"

[[record]]
biosequence = "RRIRSRPPRLPRPRPRPLIHPRP"
group_label = "class 0"

[[record]]
biosequence = "RRIRTRPPRLPRPRPRPISPPRP"
group_label = "class 0"

[[record]]
biosequence = "RRIRRRPPRLPRPRPRPYVPPRP"
group_label = "class 0"

[[record]]
biosequence = "RRIRGRPPRLPRPRPRPKRGPRP"
group_label = "class 1"

[[record]]
biosequence = "RRIRWRPPRLPRPRPRPLVAPRP"
group_label = "class 1"

[[record]]
biosequence = "RRIRWRPPRLPRPRPRPVCMPRP"
group_label = "class 1"

[[record]]
biosequence = "RRIRTRPPRLPRPRPRPETTPRP"
group_label = "class 1"

[[record]]
biosequence = "RRIRFRPPRLPRPRPRPTHHPRP"
group_label = "class 1"

[[record]]
biosequence = "RRIRERPPRLPRPRPRPTWTPRP"
group_label = "class 0"

[[record]]
biosequence = "RRIRERPPRLPRPRPRPRENPRP"
group_label = "class 0"

[[record]]
biosequence = "RRIRCRPPRLPRPRPRPMMWPRP"
group_label = "class 0"

[[record]]
biosequence = "RRIRIRPPRLPRPRPRPFEAPRP"
group_label = "class 0"

[[record]]
biosequence = "RRIRKRPPRLPRPRPRPHCMPRP"
group_label = "class 1"

[[record]]
biosequence = "RRIRRRPPRLPRPRPRPEWSPRP"
group_label = "class 1"

[[record]]
biosequence = "RRIRQRPPRLPRPRPRPHMGPRP"
group_label = "class 0"

[[record]]
biosequence = "RRIRQRPPRLPRPRPRPNGEPRP"
group_label = "class 0"

[[record]]
biosequence = "RRIRARPPRLPRPRPRPTRCPRP"
group_label = "class 1"

[[record]]
biosequence = "RRIRMRPPRLPRPRPRPQSRPRP"
group_label = "class 1"

[[record]]
biosequence = "RRIRARPPRLPRPRPRPFIIPRP"
group_label = "class 0"

[[record]]
biosequence = "RRIRTRPPRLPRPRPRPKGIPRP"
group_label = "class 0"

[[record]]
biosequence = "RRIRMRPPRLPRPRPRPRHAPRP"
group_label = "class 1"

[[record]]
biosequence = "RRIRKRPPRLPRPRPRPVHMPRP"
group_label = "class 0"

[[record]]
biosequence = "RRIRGRPPRLPRPRPRPLEDPRP"
group_label = "class 1"

[[record]]
biosequence = "RRIRHRPPRLPRPRPRPPIYPRP"
group_label = "class 0"

[[record]]
biosequence = "RRIRSRPPRLPRPRPRPLLYPRP"
group_label = "class 0"

